# System: 596521-263-R-J1-PDC complex spheroid growth;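 note: spheroids exposed to compounds for 7 days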
# method.summary: Anticancer human tumor 596521-263-R-J1-PDC patient-derived soft tissue sarcoma cell line growth inhibition [Asc]
# run.parameters: second compound 0.316 µM; first compound 1 µM; hits give low values
metric: viability, T/C (%)

compound: O=C(c1ccc(F)c(F)c1Nc1ccc(I)cc1F)N1CC(O)([C@@H]2CCCCN2)C1 + Cc1c(S(C)(=O)=O)c(-c2cc(F)cc(N3CCN(c4ccc(NS(=O)(=O)c5ccc(NC(CCN6CCC(C(=O)OCCCP(=O)(O)O)CC6)CSc6ccccc6)c(S(=O)(=O)C(F)(F)F)c5)cc4)CC3)c2)c(-c2ccc(Cl)cc2)n1C(C)C
tested.target: 596521-263-R-J1-PDC complex spheroid growth;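 note: spheroids exposed to compounds for 7 days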
metric: viability, T/C
quantity.unit: %
numeric.value: 22.9
//
compound: C=C(F)C(=O)N1CCN(c2nc(OCC3CCCN3C)nc3c2CCN(c2cccc4cccc(Cl)c24)C3)CC1CC#N (configuration not stated) + Cc1c(S(C)(=O)=O)c(-c2cc(F)cc(N3CCN(c4ccc(NS(=O)(=O)c5ccc(NC(CCN6CCC(C(=O)OCCCP(=O)(O)O)CC6)CSc6ccccc6)c(S(=O)(=O)C(F)(F)F)c5)cc4)CC3)c2)c(-c2ccc(Cl)cc2)n1C(C)C
tested.target: 596521-263-R-J1-PDC complex spheroid growth;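 note: spheroids exposed to compounds for 7 days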
metric: viability, T/C
quantity.unit: %
numeric.value: 89.6
//
compound: CCN1CCN(Cc2ccc(Nc3ncc(F)c(-c4cc(F)c5nc(C)n(C(C)C)c5c4)n3)nc2)CC1 + Cc1c(S(C)(=O)=O)c(-c2cc(F)cc(N3CCN(c4ccc(NS(=O)(=O)c5ccc(NC(CCN6CCC(C(=O)OCCCP(=O)(O)O)CC6)CSc6ccccc6)c(S(=O)(=O)C(F)(F)F)c5)cc4)CC3)c2)c(-c2ccc(Cl)cc2)n1C(C)C
tested.target: 596521-263-R-J1-PDC complex spheroid growth;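 note: spheroids exposed to compounds for 7 days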
metric: viability, T/C
quantity.unit: %
numeric.value: 83.8
//
compound: CCN1CCN(Cc2ccc(Nc3ncc(F)c(-c4cc(F)c5nc(C)n(C(C)C)c5c4)n3)nc2)CC1 + CNC(C)C(=O)NC1CN(S(=O)(=O)c2cccc(S(=O)(=O)N3CCC4CCC(C(=O)NC(c5ccccc5)c5ccccc5)N4C(=O)C(NC(=O)C(C)NC)C3)c2)CCC2CCC(C(=O)NC(c3ccccc3)c3ccccc3)N2C1=O
tested.target: 596521-263-R-J1-PDC complex spheroid growth;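 note: spheroids exposed to compounds for 7 days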
metric: viability, T/C
quantity.unit: %
numeric.value: 78.3
//
compound: O=C(c1cc(Cc2n[nH]c(=O)c3ccccc23)ccc1F)N1CCN(C(=O)C2CC2)CC1 + CNC(C)C(=O)NC1CN(S(=O)(=O)c2cccc(S(=O)(=O)N3CCC4CCC(C(=O)NC(c5ccccc5)c5ccccc5)N4C(=O)C(NC(=O)C(C)NC)C3)c2)CCC2CCC(C(=O)NC(c3ccccc3)c3ccccc3)N2C1=O
tested.target: 596521-263-R-J1-PDC complex spheroid growth;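 note: spheroids exposed to compounds for 7 days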
metric: viability, T/C
quantity.unit: %
numeric.value: 72.4
//
compound: C=CC(=O)N1CCN(c2nc(=O)n(-c3c(C)ccnc3C(C)C)c3nc(-c4c(O)cccc4F)c(F)cc23)C(C)C1 (configuration not stated) + Cc1c(S(C)(=O)=O)c(-c2cc(F)cc(N3CCN(c4ccc(NS(=O)(=O)c5ccc(NC(CCN6CCC(C(=O)OCCCP(=O)(O)O)CC6)CSc6ccccc6)c(S(=O)(=O)C(F)(F)F)c5)cc4)CC3)c2)c(-c2ccc(Cl)cc2)n1C(C)C
tested.target: 596521-263-R-J1-PDC complex spheroid growth;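 note: spheroids exposed to compounds for 7 days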
metric: viability, T/C
quantity.unit: %
numeric.value: 99.9
//
compound: COc1c(OCCCN2CCOCC2)ccc2c3n(c(=NC(=O)c4cnc(N)nc4)nc12)CCN3 + Cc1c(S(C)(=O)=O)c(-c2cc(F)cc(N3CCN(c4ccc(NS(=O)(=O)c5ccc(NC(CCN6CCC(C(=O)OCCCP(=O)(O)O)CC6)CSc6ccccc6)c(S(=O)(=O)C(F)(F)F)c5)cc4)CC3)c2)c(-c2ccc(Cl)cc2)n1C(C)C
tested.target: 596521-263-R-J1-PDC complex spheroid growth;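 note: spheroids exposed to compounds for 7 days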
metric: viability, T/C
quantity.unit: %
numeric.value: 25.4
//
compound: O=C(c1ccc(F)c(F)c1Nc1ccc(I)cc1F)N1CC(O)([C@@H]2CCCCN2)C1 + CNC(C)C(=O)NC1CN(S(=O)(=O)c2cccc(S(=O)(=O)N3CCC4CCC(C(=O)NC(c5ccccc5)c5ccccc5)N4C(=O)C(NC(=O)C(C)NC)C3)c2)CCC2CCC(C(=O)NC(c3ccccc3)c3ccccc3)N2C1=O
tested.target: 596521-263-R-J1-PDC complex spheroid growth;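 note: spheroids exposed to compounds for 7 days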
metric: viability, T/C
quantity.unit: %
numeric.value: 23.8
//
compound: C#Cc1c(F)ccc2cc(O)cc(-c3ncc4c(N5CC6CCC(C5)N6)nc(OCC56CCCN5CC(F)C6)nc4c3F)c12 (configuration not stated) + Cc1c(S(C)(=O)=O)c(-c2cc(F)cc(N3CCN(c4ccc(NS(=O)(=O)c5ccc(NC(CCN6CCC(C(=O)OCCCP(=O)(O)O)CC6)CSc6ccccc6)c(S(=O)(=O)C(F)(F)F)c5)cc4)CC3)c2)c(-c2ccc(Cl)cc2)n1C(C)C
tested.target: 596521-263-R-J1-PDC complex spheroid growth;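 note: spheroids exposed to compounds for 7 days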
metric: viability, T/C
quantity.unit: %
numeric.value: 83.6
//
compound: C#Cc1c(F)ccc2cc(O)cc(-c3ncc4c(N5CC6CCC(C5)N6)nc(OCC56CCCN5CC(F)C6)nc4c3F)c12 (configuration not stated) + CNC(C)C(=O)NC1CN(S(=O)(=O)c2cccc(S(=O)(=O)N3CCC4CCC(C(=O)NC(c5ccccc5)c5ccccc5)N4C(=O)C(NC(=O)C(C)NC)C3)c2)CCC2CCC(C(=O)NC(c3ccccc3)c3ccccc3)N2C1=O
tested.target: 596521-263-R-J1-PDC complex spheroid growth;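 note: spheroids exposed to compounds for 7 days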
metric: viability, T/C
quantity.unit: %
numeric.value: 94.8
//
compound: O=C(c1cc(Cc2n[nH]c(=O)c3ccccc23)ccc1F)N1CCN(C(=O)C2CC2)CC1 + Cc1c(S(C)(=O)=O)c(-c2cc(F)cc(N3CCN(c4ccc(NS(=O)(=O)c5ccc(NC(CCN6CCC(C(=O)OCCCP(=O)(O)O)CC6)CSc6ccccc6)c(S(=O)(=O)C(F)(F)F)c5)cc4)CC3)c2)c(-c2ccc(Cl)cc2)n1C(C)C
tested.target: 596521-263-R-J1-PDC complex spheroid growth;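 note: spheroids exposed to compounds for 7 days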
metric: viability, T/C
quantity.unit: %
numeric.value: 85.9
//
compound: CNC(C)C(=O)NC1CN(S(=O)(=O)c2cccc(S(=O)(=O)N3CCC4CCC(C(=O)NC(c5ccccc5)c5ccccc5)N4C(=O)C(NC(=O)C(C)NC)C3)c2)CCC2CCC(C(=O)NC(c3ccccc3)c3ccccc3)N2C1=O (configuration not stated) + Cc1c(S(C)(=O)=O)c(-c2cc(F)cc(N3CCN(c4ccc(NS(=O)(=O)c5ccc(NC(CCN6CCC(C(=O)OCCCP(=O)(O)O)CC6)CSc6ccccc6)c(S(=O)(=O)C(F)(F)F)c5)cc4)CC3)c2)c(-c2ccc(Cl)cc2)n1C(C)C
tested.target: 596521-263-R-J1-PDC complex spheroid growth;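 note: spheroids exposed to compounds for 7 days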
metric: viability, T/C
quantity.unit: %
numeric.value: 56.1
